# Tested on: KIT-autoinhibited
# Stated Conditions: concentration: 1 μM, replicates: in singlicate; n = 1;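 note: KINOMEscan kinase panel screen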
Quantity Kind: %Inh (%)
The reply should be a number in %, with the unit left off.

Exercise: Dear colleague, I am looking for the recorded %Inh of the following compound: Cl.c1ccc(-c2ccc3c(Nc4ccc5[nH]ncc5c4)ccnc3c2)nc1
Key: 0

Exercise: Then what about the compound Cc1ccc(C(=O)Nc2ccc(Nc3ccnc4cc(-c5nccs5)ccc34)cc2O)cc1.Cl ?
Key: 0

Exercise: How about this compound: COc1cccc(NC(=O)NC2CCN(c3ccnc(Nc4cc(OC)c(OC)c(OC)c4)n3)C2)c1 (stereo not shown)
Key: 17

Exercise: Here is the next compound: Cc1ccc(C(=O)N2CC[C@@H](O)C2)cc1-n1c(C)cc(OCc2ccc(F)cc2F)c(Br)c1=O
Key: 0

----------
Quick reference for %Inh among some compounds
# Test system: AMPK-alpha2
# Construct: gene PRKAA2
# Stated Conditions: concentration: 1 μM, replicates: in singlicate; n = 1
Hi! Could you send only the number? It should be in %, unit omitted.

Worked cases, %Inh given:
Compound: COc1cccc(NC(=O)NC2CCN(c3ccnc(Nc4cc(OC)c(OC)c(OC)c4)n3)C2)c1 (stereo not shown)
Output Unit: %
Observed: 0

Compound: Cc1ccc(C(=O)Nc2ccc(Nc3ccnc4cc(-c5nccs5)ccc34)cc2O)cc1.Cl
Output Unit: %
Observed: 0

Compound: Cc1ccc(C)c(NC(=O)NC2CCN(c3ccnc(Nc4ccc(F)cc4)n3)C2)c1 (stereo not shown)
Output Unit: %
Observed: 0

Now for a further compound.
Exercise: Entry CC(C)(C)c1ccc2nccc(Nc3cccc(O)c3)c2c1 : reported %Inh = ?
Key: 0

----------
The entries below come with measured %Inh values attached.
# Test system: PAK2
# Stated Conditions: concentration: 1 μM, replicates: in singlicate; n = 1
Numeric only. Scale: %

Compound: FC(F)(F)c1ccc(/C=C/c2cncnc2Nc2ccc3[nH]c(Cc4ccccc4)nc3c2)cc1 [GW709199]
%Inh / %: 16

Exercise: Observed %Inh on PAK2 for CCS(=O)(=O)c1ccc(OC)c(Nc2nccc(-c3c(-c4cccc(NC(=O)c5c(F)cccc5F)c4)nn4ncccc34)n2)c1 [GSK326180] , please.
Key: 0

----------
# Test system: MAPKAPK5
# Stated Conditions: concentration: 1 μM, replicates: in singlicate; n = 1
Quantity Kind: %Inh

Solved entries (count: 6):
Smiles Repr: Cn1cc(-c2ccc3c(c2)CCN3C(=O)Cc2cccc(F)c2)c2c(N)ncnc21
Tgt: MAPKAPK5
Observed: 0%

Smiles Repr: O=C(Nc1cccc(-c2nn3ccccc3c2-c2ccnc(Nc3cccc(F)c3)n2)c1)c1c(F)ccc(F)c1Cl
Tgt: MAPKAPK5
Observed: 0%

Smiles Repr: CCn1c(-c2nonc2N)nc2c(C#CC(C)(C)O)nc(OC[C@H](N)c3ccccc3)cc21
Tgt: MAPKAPK5
Observed: 7%

Smiles Repr: O=c1[nH]cc(-c2ccc(N3CCOCC3)cc2)c2sc(-c3cn[nH]c3)cc12
Tgt: MAPKAPK5
Observed: 2%

Smiles Repr: COC(=O)Nc1nc2ccc(Oc3ccc(NC(=O)Nc4cc(C(F)(F)F)ccc4F)cc3)cc2n1C.Cl
Tgt: MAPKAPK5
Observed: 0%

Smiles Repr: CC(=O)N1CCN(c2ccc(Nc3nccc(-c4sc(C(C)C)nc4-c4cccc(NS(=O)(=O)c5cccc(Cl)c5)c4)n3)cn2)CC1
Tgt: MAPKAPK5
Observed: 0%

From here, focus on the item given below.
Exercise: Value wanted: %Inh (MAPKAPK5) of entry O=C(Nc1cccc(-c2nn3ncccc3c2-c2ccnc(Nc3ccccc3)n2)c1)c1c(F)cccc1F
Key: 0%

----------
Item-by-item account of %Inh
# System: AKT2
# Stated Conditions: concentration: 1 μM, replicates: in singlicate; n = 1
Express the result in % but write the number alone.

Compound: Fc1ccc(-c2ncn(C3CCNCC3)c2-c2ccnc(Oc3ccc(-c4ccccc4)cc3)n2)cc1
%Inh / %: 31
//
Compound: COc1ccc(-c2coc3ccc(-c4nnc(SCc5ccc(OC)c(C(F)(F)F)c5)o4)cc23)cc1
%Inh / %: 0
//
Compound: Cc1ccc(S(=O)(=O)Nc2ccc(Nc3nccc(Nc4cccc5[nH]ncc45)n3)cc2)cc1
%Inh / %: 0
//
Compound: Cn1cc(-c2ccc3c(c2)CCN3C(=O)Cc2cccc(F)c2)c2c(N)ncnc21
%Inh / %: 9
//
Compound: O=C(Nc1cccc(Oc2ccc3nc(NC(=O)C4CC4)cn3n2)c1)c1ccccc1C(F)(F)F
%Inh / %: 0
//
Compound: Cl.Cl.NCC(C(=O)Nc1cc(Br)c(-c2ccnc3[nH]ccc23)s1)c1ccccc1 (centres unmarked)
%Inh / %: 25

Exercise: Request the reported %Inh associated with COc1cc2c(cc1OCCN1CCNCC1)ncc1c3ccc(C#N)cc3[nH]c21
Key: 0

Exercise: Next compound: CN(C)S(=O)(=O)c1cc(-c2ccc3nccc(-c4cccc(S(N)(=O)=O)c4)c3c2)cnc1N
Key: 5

----------
# Tested on: GRK3
# Construct: gene ADRBK2
# Stated Conditions: concentration: 1 μM, replicates: in singlicate; n = 1
Quantity Kind: %Inh (%)
Give the number; % is assumed, so skip it.

// solved cases for %Inh follow
Compound: O=C(Nc1n[nH]c2cc(-c3ccoc3)ccc12)C1CC1 [SB-738481]
%Inh (%): 0
--
Compound: Cc1ccc(C(=O)N2CC[C@@H](O)C2)cc1-n1c(C)cc(OCc2ccc(F)cc2F)c(Br)c1=O
%Inh (%): 0
--
Compound: COc1ccc(Nc2nccc(N3CCC(NC(=O)Nc4cccc(OC)c4)C3)n2)cc1 (centres unmarked) [GSK1379742]
%Inh (%): 22

Exercise: State the recorded %Inh for this entry: Nc1ncnc2c1nc(-c1ccccc1)n2-c1ccccc1 [SKF-97293]
Key: 13

Exercise: Lookup CCCCc1nn2ncccc2c1-c1ccnc(Nc2ccc(N3CCN(C)CC3)cc2)n1 [GW684941]
Key: 62

Exercise: Likewise for NCCCC(NC(=O)c1cc(Br)c(-c2ccnc3[nH]ccc23)s1)c1ccccc1.O=C(O)C(F)(F)F.O=C(O)C(F)(F)F (centres unmarked) [GSK1287544] ?
Key: 85

Exercise: Another: Cl.NC(=O)c1cccc(Nc2nccc(Nc3ccc(Oc4c(Cl)cccc4Cl)c(Cl)c3)n2)c1 [GW659009]
Key: 39

Exercise: Record: Cc1ccc(S(=O)(=O)Nc2ccc(Nc3nccc(Nc4cccc5[nH]ncc45)n3)cc2)cc1 [GSK581271]
Key: 42

----------
// reported %Inh for each item listed
# Test system: TGFBR2
# Stated Conditions: concentration: 1 μM, replicates: in singlicate; n = 1
Please reply with the bare figure in % and do not write the unit itself.

Check out these entries, answers already filled in.
Molecule: CCCCc1nn2ncccc2c1-c1ccnc(Nc2ccc(N3CCN(C)CC3)cc2)n1 [GW684941]
Output Unit: %
%Inh: 91
//
Molecule: O=C(Nc1cccc(Oc2ccc3nc(NC(=O)C4CC4)cn3n2)c1)c1ccccc1C(F)(F)F
Output Unit: %
%Inh: 0
//
Molecule: Cc1ccc(C(=O)Nc2ccc(Nc3ccnc4cc(-c5nccs5)ccc34)cc2O)cc1.Cl [GW494702]
Output Unit: %
%Inh: 0

Exercise: Return reported %Inh; argument: CN(c1ccc(NC(=O)Nc2cc(C(F)(F)F)ccc2F)cc1)c1ccnc(Nc2ccc(S(N)(=O)=O)cc2)n1 [GW809893]
Key: 6

Exercise: What would you report for Cn1cc(-c2ccc3c(c2)CCN3C(=O)Cc2cccc(Cl)c2)c2c(N)ncnc21 [GSK2606590] ?
Key: 0

----------
# System: YANK3
# Construct: gene STK32C
# Stated Conditions: concentration: 1 μM, replicates: in singlicate; n = 1
Quantity Kind: %Inh (%)
// units = %; emit number, no label

Sample records with %Inh:
Molecule: Cl.Cl.NCC(NC(=O)c1cc(-c2ccccc2)c(-c2ccnc3[nH]ccc23)s1)c1ccccc1 (stereo not shown) [GSK1321561]
Output Unit: %
Observed: 1
--
Molecule: Nc1ncc(-c2cccnc2)c2scc(-c3ccc4c(c3)CCN4C(=O)Cc3ccccc3)c12 [GSK683281]
Output Unit: %
Observed: 29
--
Molecule: Cc1cccc(NC(=O)Nc2ccc(Oc3ncnc4ccn(C)c34)cc2)c1
Output Unit: %
Observed: 31

Shifting focus to the molecule that follows.
Exercise: Requested field: %Inh. Item: COc1cc2c(cc1OCCN1CCNCC1)ncc1c3ccc(C#N)cc3[nH]c21
Key: 0

----------
Listed here: items and their measured %Inh.
# Test system: JAK3(JH1domain-catalytic)
# Stated Conditions: concentration: 1 μM, replicates: in singlicate; n = 1
Response body: numeric value in %, unit text excluded.

Use these answered entries as a reference point.
Compound: COc1cc(Nc2ncc3c(C)nc(-c4cc5ccccc5[nH]4)n3n2)cc(OC)c1OC [GW869516]
Quantity Kind: %Inh
Observed: 11

Compound: Fc1ccc(-c2ncn(C3CCNCC3)c2-c2ccnc(Oc3ccc(-c4ccccc4)cc3)n2)cc1 [SB-245391]
Quantity Kind: %Inh
Observed: 41

Compound: COc1cccc(NC(=O)NC2CCN(c3ccnc(Nc4cc(OC)c(OC)c(OC)c4)n3)C2)c1 (stereo not shown) [GSK1379763]
Quantity Kind: %Inh
Observed: 0

Here's the next entry for you.
Exercise: Param item = O=C(O)C(F)(F)F.O=C(O)C(F)(F)F.O=c1[nH]ccc2nc(N[C@@H]3CCCNC3)nc(Nc3ccc(S(=O)(=O)N4CCOCC4)cc3)c12 [GSK2177277] ; retrieve measured %Inh.
Key: 99.3
